- System: B16F0 melanoma tumour
- experiment-summary: Biodistribution in B16 melanoma bearing mice
- Type: in vivo, C57BL/6J mice
- condition-description: B16 melanoma bearing mice, 6 h
metric: uptake BLOOD (% ID/g)
Field format: number, assumed % ID/g, no unit text.

Use the examples below as a reference point.
CCN(CC)CCNC(=O)c1ccc(F)nc1 [[^18F]MEL2]; 0.020
CCN(CC)CCNC(=O)c1ccnc(F)c1 [[^18F]MEL8]; 0.06
CCCCN(C)CCCCNC(=O)c1ccc(F)nc1 [[^18F]MEL4]; 0.14

Turning now to a further molecule:
Give the reported value of uptake BLOOD for this record: CCN(CC)CCNC(=O)c1cccnc1F [[^18F]MEL6] 0.1

* * *

- Test system: B16F0 melanoma tumour
- experiment-summary: Biodistribution in B16 melanoma bearing mice
- Type: in vivo, C57BL/6J mice
- condition-description: B16 melanoma bearing mice, 6 h
uptake STOMACH by entry:
Expressed in % ID/g, but write only the number.

Sample answers from the record:
CCN(CC)CCNC(=O)c1cccnc1F [[^18F]MEL6]; 0.7
CCCCN(C)CCCCNC(=O)c1ccc(F)nc1 [[^18F]MEL4]; 1.79
CCN(CC)CCNC(=O)c1ccc(F)nc1 [[^18F]MEL2]; 0.193

Now turn to the next compound.
Please report uptake STOMACH for the following compound: CCN(CC)CCNC(=O)c1ccnc(F)c1 [[^18F]MEL8] 0.30

* * *

- Test system: B16F0 melanoma tumour
- experiment-summary: Biodistribution in B16 melanoma bearing mice
- Type: in vivo, C57BL/6J mice
- condition-description: B16F0 tumour, C57BL/6J mice, 1 h, mean ± S.D., n = 5
metric: Organ distribution Intestine (% ID/organ)
Quick note: give the figure in % ID/organ, leave out the unit.

CCN(CC)CCNC(=O)c1cncc(I)c1 [[^123I]11]; 15

Please report the measured Organ distribution Intestine for CCN(CC)CCNC(=O)c1ccc(I)nc1 [[^123I]14] 10

Answer with the recorded Organ distribution Intestine of CCCN(CCC)CCCCNC(=O)c1cncc(I)c1 [[^123I]17] only. 15

Recall and state the measured Organ distribution Intestine for O=C(c1cncc(I)c1)N1CCN(Cc2ccccc2)CC1 [[^123I]20] . 58

* * *

Parameter: uptake BLOOD. Scope: all listed entries.
- System: B16F0 melanoma tumour
- experiment-summary: Biodistribution in B16 melanoma bearing mice
- Assay type: in vivo, C57BL/6J mice
- condition-description: B16 tumour, C57BL/6J mice, 1 h, mean ± SD, n = 5
Express your answer in % ID/g, writing the number without its unit.

Sample answers from the record:
CCN(CC)CCNC(=O)c1cncc(I)c1 [[^123I]11]; 1.21
O=C(c1cncc(I)c1)N1CCN(Cc2ccccc2)CC1 [[^123I]20]; 0.89
CCCN(CCC)CCCCNC(=O)c1cncc(I)c1 [[^123I]17]; 3.1

# next molecule below
Jot down uptake BLOOD (B16F0 melanoma tumour) of CCN(CC)CCNC(=O)c1ccc(I)nc1 [[^123I]14] . 6.9

* * *

- Test system: B16F0 melanoma tumour
- experiment-summary: Biodistribution in B16 melanoma bearing mice
- Assay type: in vivo, C57BL/6J mice
- condition-description: B16 tumour, C57BL/6J mice, 1 h, mean ± SD, n = 5
- Method: Animal experiments were performed in compliance with the NHMRC Australian Code of Practice for the care and use of animals for scientific purposes. […] Eleven days (B16F0 melanoma) and 25 days (A375 human melanoma) after tumour transplantation, the [^18F]nicotinamides (0.5-1.5 MBq, 100 μl) and [^123I]nicotinamide (0.37-0.74 MBq, 100 μl) derivatives were injected intravenously via the tail vein into mice (15-18 g). […] Selected organs were weighed and their radioactivity measured with a γ-counter. […]
The following compounds are listed with their measured uptake KIDNEY values.
# value in % ID/g; strip the unit string

CCN(CC)CCNC(=O)c1ccc(I)nc1 [[^123I]14]; 4.2
CCCN(CCC)CCCCNC(=O)c1cncc(I)c1 [[^123I]17]; 3.5

Give the measured uptake KIDNEY for CCN(CC)CCNC(=O)c1cncc(I)c1 [[^123I]11] 1.8

Supply measured uptake KIDNEY of O=C(c1cncc(I)c1)N1CCN(Cc2ccccc2)CC1 [[^123I]20] in your reply. 4.2
